Test system: Chilo suppressalis
experimentalProtocol: Inhibition of fenitrothion-detoxification activities by hydrolysis in OP-resistant Chilo suppressalis Hata-f (rice stem borer)
Format: organism-based
statedConditions: read-out: I50
recordedEndpoint: IC50 (µM)
One number for each entry, in µM.

Given the entry Cc1cc(OC(=O)N(C)C)nc(N(C)C)n1 , report its measured IC50.
4.5

###

System: fenitrothion-detoxification activity by binding protein
experimentalProtocol: Inhibition of fenitrothion-detoxification activities by binding protein in OP-resistant Chilo suppressalis Hata-f (rice stem borer) at 1x10'-7M (reference value: 0%)
Format: organism-based
statedConditions: in vivo, probe fenitrothion
recordedEndpoint: inhibition at 0.1 µM (%)
Give bare numbers, in %.

Look up inhibition at 0.1 µM: Cc1cc(OC(=O)N(C)C)nc(N(C)C)n1
0

Where do these numbers come from? They come from ChEMBL document CHEMBL3044873.
